Origin of measurements: patent US8084643B2

# experimental protocol: Stability of prodrugs in bovine serum
# Assay type: in vitro ADME
# measurement setup: 37° C., florfenicol release by HPLC
# Experimental: Determination of stability of prodrugs in bovine or swine serum; • 10 mg/mL in dimethylsulfoxide stock solutions of pro-drugs were prepared. 50 μL of the above stock solution was added to 5 mL bovine or swine serum, and mixed. 400 μL aliquots of the above pro-drug serum solutions were transferred into plastic tubes (one tube per time point). Solutions were incubated at 37° C. for predetermined time. […]

{"columns": ["compound", "unit of measure", "half-life at 0.099 mg/mL"],
 "data": [
  ["CNCCCOC(=O)O[C@H](c1ccc(S(C)(=O)=O)cc1)[C@@H](CF)NC(=O)C(Cl)Cl.Cl", "h", 0.69],
  ["CS(=O)(=O)c1ccc([C@@H](OC(=O)CCCCN)[C@@H](CF)NC(=O)C(Cl)Cl)cc1.Cl", "h", 0.49],
  ["CS(=O)(=O)c1ccc([C@@H](OC(=O)CN)[C@@H](CF)NC(=O)C(Cl)Cl)cc1", "h", 1.8],
  ["C[C@@H](N)C(=O)NCCCC(=O)O[C@H](c1ccc(S(C)(=O)=O)cc1)[C@@H](CF)NC(=O)C(Cl)Cl.Cl", "h", 6.5],
  ["Br.Cn1cc[n+](CCCC(=O)O[C@H](c2ccc(S(C)(=O)=O)cc2)[C@@H](CF)NC(=O)C(Cl)Cl)c1", "h", 10.5],
  ["CS(=O)(=O)c1ccc([C@@H](OC(=O)OCCCN)[C@@H](CF)NC(=O)C(Cl)Cl)cc1.Cl", "h", 3.8],
  ["CS(=O)(=O)c1ccc([C@@H](OC(=O)OCCN)[C@@H](CF)NC(=O)C(Cl)Cl)cc1.Cl", "h", 0.7],
  ["CNCCCCC(=O)O[C@H](c1ccc(S(C)(=O)=O)cc1)[C@@H](CF)NC(=O)C(Cl)Cl.Cl", "h", 1.4],
  ["CCNCCOC(=O)O[C@H](c1ccc(S(C)(=O)=O)cc1)[C@@H](CF)NC(=O)C(Cl)Cl.Cl", "h", 0.59],
  ["CS(=O)(=O)c1ccc([C@@H](OC(=O)CCCN)[C@@H](CF)NC(=O)C(Cl)Cl)cc1.Cl", "h", 3.5],
  ["CS(=O)(=O)c1ccc([C@@H](OC(=O)CNC(=O)CN)[C@@H](CF)NC(=O)C(Cl)Cl)cc1.Cl", "h", 1.4],
  ["CCNCCCOC(=O)O[C@H](c1ccc(S(C)(=O)=O)cc1)[C@@H](CF)NC(=O)C(Cl)Cl.Cl", "h", 0.71]
]}

---

# experimental protocol: Stability of prodrugs in aqueous solution at pH 7.4 (phosphate buffer)
# Assay type: physicochemical
# measurement setup: pH 7.4, pH 7.4 phosphate buffer, 1 mg/mL, room temperature, min, read-out: Half life pH 7.4 (converted)

{"columns": ["compound", "half-life at 1 mg/mL"],
 "data": [
  ["CS(=O)(=O)c1ccc([C@@H](OC(=O)[C@H](N)CCCN)[C@@H](CF)NC(=O)C(Cl)Cl)cc1.Cl.Cl [Example 8]", "< 10 min"]
]}

---

# experimental protocol: Stability of prodrugs in bovine serum
# Format: in vitro ADME
# measurement setup: 37° C., min
# Description: Determination of stability of prodrugs in bovine or swine serum; • 10 mg/mL in dimethylsulfoxide stock solutions of pro-drugs were prepared. 50 μL of the above stock solution was added to 5 mL bovine or swine serum, and mixed. 400 μL aliquots of the above pro-drug serum solutions were transferred into plastic tubes (one tube per time point). Solutions were incubated at 37° C. for predetermined time. […]
Below: a set of entries, each annotated with reported half-life at 0.099 mg/mL.
reported metric: half-life at 0.099 mg/mL

{"columns": ["compound", "result"],
 "data": [
  ["C[C@H](N)C(=O)N[C@@H](C)C(=O)O[C@H](c1ccc(S(C)(=O)=O)cc1)[C@@H](CF)NC(=O)C(Cl)Cl.Cl", "< 10 min"],
  ["CS(=O)(=O)c1ccc([C@@H](OC(=O)COCCN)[C@@H](CF)NC(=O)C(Cl)Cl)cc1.Cl", "< 10 min"],
  ["CS(=O)(=O)c1ccc([C@@H](OC(=O)[C@H](N)CCCN)[C@@H](CF)NC(=O)C(Cl)Cl)cc1.Cl.Cl", "< 10 min"]
]}
